Source listed as patent US6479435B1.

Test system: upland rice (Oryza sp., var.Tebonnet, RICE)
Test: Post-emerge greenhouse test, crop damage rating
Format: in vivo
Conditions: 63 g al/ha, 14 days after application
TEST READOUT: RICE crop damage rating (0-100)

* O=c1cc2n(c(=O)n1-c1cc(Oc3ncccn3)c(Cl)cc1F)CCC2 | 0
* O=c1n(CCCF)nnn1-c1cc(Oc2ncccc2[N+](=O)[O-])c(Cl)cc1F | 0
* Cn1c(C(F)(F)F)nc(-c2cc(Oc3ncccc3[N+](=O)[O-])c(Cl)cc2F)c1Cl | 0
* Cc1nsc(Oc2cc(-n3nnn(CCCF)c3=O)c(F)cc2Cl)c1[N+](=O)[O-] | 0
* O=c1n(CCCF)nnn1-c1cc(Oc2ncccc2C(F)(F)F)c(Cl)cc1F | 20
* CCOC(=O)C(C)Oc1ccc(Oc2cc(-n3c(=O)n4n(c3=S)CCCC4)c(F)cc2Cl)cc1 (centres unmarked) | 40
* Cn1nc(-c2cc(Oc3cccc(F)n3)c(Cl)cc2F)c(Cl)c1C(F)(F)F | 40
* CC(=O)Nc1ccc(Oc2cc(-n3c(=O)n4n(c3=S)CCCC4)c(F)cc2Cl)c(C(F)(F)F)c1 | 0

----------
Item-by-item account of IPOHE phytotoxicity rating (0-100)
System: ivyleaf morningglory (Ipomoea hederacea, IPOHE)
Test: Post-emerge greenhouse herbicide test, phytotoxicity rating
Assay type: in vivo
Details: 500 g al/ha, 14 days after application
TEST READOUT: IPOHE phytotoxicity rating (0-100)

- O=c1n(-c2cc(Oc3ccc([N+](=O)[O-])cc3)c(Cl)cc2F)c(=S)n2n1CCCC2: 50
- N#Cc1cc([N+](=O)[O-])ccc1Oc1cc(-n2c(=O)n3n(c2=S)CCCC3)c(F)cc1Cl: 70
- O=c1cc2n(c(=O)n1-c1cc(Oc3ncccn3)c(Cl)cc1F)CCC2: 30
- COc1nc(OC)nc(Oc2cc(-c3nn(C)c(C(F)(F)F)c3Cl)c(F)cc2Cl)n1: 80
- O=c1n(CCCF)nnn1-c1cc(Oc2ncccc2C(F)(F)F)c(Cl)cc1F: 95
- CCOC(=O)C(C)Oc1ccc(Oc2cc(-n3c(=O)n4n(c3=S)CCCC4)c(F)cc2Cl)cc1 (centres unmarked): 100
- CCN1CC(=O)N(c2cc(Oc3ncccc3C(F)(F)F)c(Cl)cc2F)C1=O: 70
- Cn1nc(-c2cc(Oc3ncccc3C(F)(F)F)c(Cl)cc2F)c(Cl)c1C(F)(F)F: 90

----------
Item-by-item account of pest or weed control at 125 g/ha
Tested on: ivyleaf morningglory (Ipomoea hederacea, IPOHE)
Test: Pre-emerge greenhouse herbicide test, phytotoxicity rating
Assay type: in vivo
Details: Ipomoea, pre-emergence, 336 h, Rate 125 g al/ha, 14 days after application, rating scale 0-100
TEST READOUT: pest or weed control at 125 g/ha (%)

• Nn1c(C(F)(F)F)cc(=O)n(-c2cc(Oc3ccccc3[N+](=O)[O-])c(Cl)cc2F)c1=O = 60
• Nn1c(C(F)(F)F)cc(=S)n(-c2cc(Oc3ccc(Cl)cn3)c(Cl)cc2F)c1=O = 40
• Nn1c(C(F)(F)F)cc(=O)n(-c2cc(Oc3ccc([N+](=O)[O-])cc3C(F)(F)F)c(Cl)cc2F)c1=O = 90
• Nn1c(C(F)(F)F)cc(=O)n(-c2cc(Oc3cccc(Cl)n3)c(Cl)cc2F)c1=O = 70
• Nn1c(C(F)(F)F)cc(=O)n(-c2cc(Oc3ncccc3C(F)(F)F)c(Cl)cc2F)c1=O = 70
• Nn1c(C(F)(F)F)cc(=O)n(-c2cc(Oc3ncccn3)c(Cl)cc2F)c1=O = 100
• O=c1n(-c2cc(Oc3ncccc3C(F)(F)F)c(Cl)cc2F)c(=S)n2n1CCCC2 = 20

----------
Item-by-item account of SETVI phytotoxicity rating (0-100)
Test system: green foxtail (Setaria viridis, SETVI)
Experiment: Post-emerge greenhouse herbicide test, phytotoxicity rating
Format: in vivo
Conditions: 1000 g al/ha, 14 days after application
TEST READOUT: SETVI phytotoxicity rating (0-100)

• N#Cc1ccc(Oc2cc(-n3c(=O)cc4n(c3=O)CCC4)c(F)cc2Cl)nc1 [Compound 5-11] = 10
• O=c1cc2n(c(=O)n1-c1cc(Oc3ccccc3[N+](=O)[O-])c(Cl)cc1F)CCC2 [Compound 5-1] = 20
• O=c1cc2n(c(=O)n1-c1cc(Oc3ncccc3[N+](=O)[O-])c(Cl)cc1F)CCC2 [Compound 5-8] = 10
• CCOC(=O)C(C)Oc1ccc(Oc2cc(-n3c(=O)cc4n(c3=O)CCC4)c(F)cc2Cl)cc1 (stereo not shown) [Compound 5-6] = 50

----------
Tested on: field corn (Zea mays L., var. Dekalb 535, CORN)
Test: Post-emerge greenhouse test, crop damage rating
Type: in vivo
Details: rate 500 g ai/ha, 14 days after application, scale 0-100
TEST READOUT: crop damage rating CORN

• COc1cc(Oc2cc(-n3c(=O)n4n(c3=S)CCCC4)c(F)cc2Cl)nc(OC)n1 = 5
• O=c1n(-c2cc(Oc3nc(Cl)ccc3C(F)(F)F)c(Cl)cc2F)c(=S)n2n1CCCC2 = 10
• N#Cc1cccnc1Oc1cc(-n2c(=O)n3n(c2=S)CCCC3)c(F)cc1Cl = 20
• Nn1c(C(F)(F)F)cc(=O)n(-c2cc(Oc3cccc(F)n3)c(Cl)cc2F)c1=O = 80

----------
Item-by-item account of phytotoxicity rating SORHA
System: Johnsongrass (Sorghum halepense, SORHA)
Test: Post-emerge greenhouse herbicide test, phytotoxicity rating
Format: in vivo
Settings: rate 500 g ai/ha, 14 days after application, scale 0-100
TEST READOUT: phytotoxicity rating SORHA

* COc1nc(OC)nc(Oc2cc(-n3c(=O)n4n(c3=S)CCCC4)c(F)cc2Cl)n1 [Compound 8-34] | 50
* O=c1n(-c2cc(Oc3ccc([N+](=O)[O-])cn3)c(Cl)cc2F)c(=S)n2n1CCCC2 [Compound 8-23] | 20
* CC(C)S(=O)(=O)c1cccnc1Oc1cc(-n2c(=O)n3n(c2=S)CCCC3)c(F)cc1Cl [Compound 8-37] | 50
* O=c1n(-c2cc(Oc3ccccn3)c(Cl)cc2F)c(=S)n2n1CCCC2 [Compound 8-17] | 100
* Nn1c(C(F)(F)F)cc(=O)n(-c2cc(Oc3cccc(F)n3)c(Cl)cc2F)c1=O [Compound 9-4] | 98
* Cc1nsc(Oc2cc(-n3c(=O)n4n(c3=S)CCCC4)c(F)cc2Cl)c1[N+](=O)[O-] [Compound 8-35] | 80
* O=c1n(-c2cc(Oc3nc(Cl)ccc3C(F)(F)F)c(Cl)cc2F)c(=S)n2n1CCCC2 [Compound 8-27] | 20
* O=c1n(-c2cc(Oc3nc(F)c(F)cc3F)c(Cl)cc2F)c(=S)n2n1CCCC2 [Compound 8-28] | 60
* COc1cc(OC)nc(Oc2cc(-n3c(=O)n4n(c3=S)CCCC4)c(F)cc2Cl)n1 [Compound 8-33] | 30
* O=c1n(-c2cc(Oc3ncccc3[N+](=O)[O-])c(Cl)cc2F)c(=S)n2n1CCCC2 [Compound 8-19] | 50
* O=c1n(-c2cc(Oc3cccc(F)n3)c(Cl)cc2F)c(=S)n2n1CCCC2 [Compound 8-25] | 60
* Nn1c(C(F)(F)F)cc(=O)n(-c2cc(Oc3cccc(C(F)(F)F)c3)c(Cl)cc2F)c1=O [Compound 9-25] | 70
* N#Cc1ccc(Oc2cc(-n3c(=O)n4n(c3=S)CCCC4)c(F)cc2Cl)nc1 [Compound 8-22] | 30

----------
Item-by-item account of IPOHE phytotoxicity rating
Test system: ivyleaf morningglory (Ipomoea hederacea, IPOHE)
Test: Pre-emerge greenhouse herbicide test, phytotoxicity rating
Assay type: in vivo
Conditions: Rate 500 g al/ha, 14 days after application, rating scale 0-100
TEST READOUT: IPOHE phytotoxicity rating

* O=c1n(-c2cc(Oc3ccccn3)c(Cl)cc2F)c(=S)n2n1CCCC2 [Compound 8-17] | 99
* Nn1c(C(F)(F)F)cc(=O)n(-c2cc(Oc3cccc(F)n3)c(Cl)cc2F)c1=O [Compound 9-4] | 100
* Cc1nsc(Oc2cc(-n3c(=O)n4n(c3=S)CCCC4)c(F)cc2Cl)c1[N+](=O)[O-] [Compound 8-35] | 100
* COc1cc(OC)nc(Oc2cc(-n3c(=O)n4n(c3=S)CCCC4)c(F)cc2Cl)n1 [Compound 8-33] | 70
* Nn1c(C(F)(F)F)cc(=O)n(-c2cc(Oc3cccc(C(F)(F)F)c3)c(Cl)cc2F)c1=O [Compound 9-25] | 90
* CC(C)S(=O)(=O)c1cccnc1Oc1cc(-n2c(=O)n3n(c2=S)CCCC3)c(F)cc1Cl [Compound 8-37] | 85
* O=c1n(-c2cc(Oc3ncccc3[N+](=O)[O-])c(Cl)cc2F)c(=S)n2n1CCCC2 [Compound 8-19] | 90
* CS(=O)(=O)c1cccnc1Oc1cc(-n2c(=O)n3n(c2=S)CCCC3)c(F)cc1Cl [Compound 8-21] | 100
